Where do these numbers come from? They come from ChEMBL document CHEMBL1127919.

Listed here are compounds together with their documented Ki.
Target: Melatonin receptor (Gallus gallus, UniProt P49288+P51050+P49285)
Test: Binding affinity towards melatonin receptor was determined using 2-[125I]iodomelatonin as radioligand in chick brain membranes
Format: cell membranes, Membrane
Please reply with the bare figure in nM and do not write the unit itself.

Some solved entries appear below for comparison.
- CCC(=O)NC1CCc2[nH]c3ccc(OC)cc3c2C1 (stereo unspecified): 41
- COc1ccc2c(c1)c(CCNC(C)=O)cn2C: 254
- CC(=O)NC1CCCc2c1c1ccccc1n2C (stereo unspecified): 227

Asked: Entry COc1ccc2[nH]c3c(c2c1)CC(NC(C)=O)CC3 (stereo unspecified) : reported Ki = ?
Given back: 219

====

Biological target: Melatonin receptor (Gallus gallus, UniProt P49288+P51050+P49285)
Assay: Binding affinity towards melatonin receptor was determined using 2-[125I]iodomelatonin as radioligand in chick brain membranes
Format: cell membranes, Membrane
endpoint: Ki (µM)
Please reply with the bare figure in µM and do not write the unit itself.

• CCCC(=O)NC1CCc2[nH]c3ccccc3c2C1 (configuration not stated) = 1.06
• COc1ccc2c(c1)c1c(n2C)CCCC1NC(=O)C1CC1 (configuration not stated) = 0.03
• COc1ccc2[nH]c3c(c2c1)CC(NC(=O)C(F)(F)F)CC3 (configuration not stated) = 0.102
• COc1ccc2c(c1)c1c(n2C)CCCC1NC(=O)C1CCC1 (configuration not stated) = 0.271
• CCCCC(=O)NC1CCCc2c1c1cc(OC)ccc1n2C (configuration not stated) = 0.082
• O=C(CBr)NC1CCc2[nH]c3ccccc3c2C1 (configuration not stated) = 0.74

Asked: Entry Cn1c2c(c3ccccc31)C(NC(=O)C(F)(F)F)CCC2 (configuration not stated) : reported Ki = ?
Given back: 0.766

Asked: Entry CCC(=O)NC1CCCc2c1c1cc(OC)ccc1n2C (configuration not stated) : reported Ki = ?
Given back: 0.00144

====

Molecular target: Melatonin receptor (Gallus gallus, UniProt P49288+P51050+P49285)
Experiment: Binding affinity towards melatonin receptor was determined using 2-[125I]iodomelatonin as radioligand in chick brain membranes
Assay type: cell membranes, Membrane
Strictly below 200 nM in Ki: Yes. Otherwise: No.

Completed entries (count: 5):
• CCC(Br)C(=O)NC1CCc2[nH]c3ccccc3c2C1 (centres undefined) = No
• CCCCC(=O)NC1CCCc2c1c1ccccc1n2C (centres undefined) = No
• CCCC(=O)NC1CCCc2c1c1ccccc1n2C (centres undefined) = No
• CCC(=O)NC1CCc2[nH]c3ccccc3c2C1 (centres undefined) = No
• COc1ccc2c(c1)c1c(n2C)CCCC1NC(C)=O (centres undefined) = Yes

Asked: Hello, I'm reviewing records and need to know if Ki of COc1ccc2[nH]c3c(c2c1)CC(NC(=O)CBr)CC3 (centres undefined) is below 200 nM. Could you check?
Given back: Yes

Asked: Hello, I'm reviewing records and need to know if Ki of CCCC(=O)NC1CCc2[nH]c3ccc(OC)cc3c2C1 (centres undefined) is below 200 nM. Could you check?
Given back: No

Asked: Hello, I'm reviewing records and need to know if Ki of COc1ccc2[nH]c3c(c2c1)CC(NC(=O)C1CC1)CC3 (centres undefined) is below 200 nM. Could you check?
Given back: No

Asked: Hello, I'm reviewing records and need to know if Ki of Cn1c2c(c3ccccc31)C(NC(=O)C1CC1)CCC2 (centres undefined) is below 200 nM. Could you check?
Given back: No

Asked: Hello, I'm reviewing records and need to know if Ki of COc1ccc2c(c1)c1c(n2C)CCCC1NC(=O)C(F)(F)F (centres undefined) is below 200 nM. Could you check?
Given back: Yes

Asked: Hello, I'm reviewing records and need to know if Ki of CC(=O)NC1CCc2[nH]c3ccccc3c2C1 (centres undefined) is below 200 nM. Could you check?
Given back: No

Asked: Hello, I'm reviewing records and need to know if Ki of CCCC(=O)NC1CCCc2c1c1cc(OC)ccc1n2C (centres undefined) is below 200 nM. Could you check?
Given back: Yes

Asked: Hello, I'm reviewing records and need to know if Ki of O=C(NC1CCc2[nH]c3ccccc3c2C1)C(F)(F)F (centres undefined) is below 200 nM. Could you check?
Given back: No
